# test-system: human GPC3 (glypican 3), full length, on cells (human) (UniProt P51654)
# Sequence (P51654 25-554 limits assumed): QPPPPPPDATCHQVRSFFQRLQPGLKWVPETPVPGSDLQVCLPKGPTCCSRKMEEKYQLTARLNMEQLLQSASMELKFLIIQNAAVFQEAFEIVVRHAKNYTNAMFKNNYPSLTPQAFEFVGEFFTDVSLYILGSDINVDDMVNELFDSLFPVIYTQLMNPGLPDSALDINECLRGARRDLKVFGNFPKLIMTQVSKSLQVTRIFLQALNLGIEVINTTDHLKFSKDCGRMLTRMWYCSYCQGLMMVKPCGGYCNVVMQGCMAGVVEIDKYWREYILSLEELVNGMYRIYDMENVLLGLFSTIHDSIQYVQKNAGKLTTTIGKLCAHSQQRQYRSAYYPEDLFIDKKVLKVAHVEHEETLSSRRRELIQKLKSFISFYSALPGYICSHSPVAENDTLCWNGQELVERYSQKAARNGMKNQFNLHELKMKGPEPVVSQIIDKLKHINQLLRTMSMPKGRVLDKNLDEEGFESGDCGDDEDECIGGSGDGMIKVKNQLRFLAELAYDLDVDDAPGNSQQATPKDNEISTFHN
# assay-summary: cell-based or functional assay
// reported % dead target cells, flow cytometry, 48h, Hep3B per item
Express it in %; write the number only.

hmAb1-4 CAR (protein, part only; not given: hinge, transmembrane and signaling domains, part only) chain, part: QVQLVQSGAEVKKPGASVKVSCKTSGYTFTDYYIHWVRQAPGQGLEWIGEIYPGSGNTYYAQKFQGRATLTADTSTSTAYMEFSSLRSEDTAVYYCARGNDYDAWFVYWGQGTLVTVSSGSTSGSGKPGSGEGSTKGDIVMTQSPDSLAVSLGERATINCKSSQSLLNSGTRKNYLAWYQQKPGQPPKLLIYWASIRESGVPDRFSGSGSGTDFTLTISSLQAEDVAVYYCKQSYSLYTFGQGTKLEIK = 89.8
hmAb1-3 CAR (protein, part only; not given: hinge, transmembrane and signaling domains, part only) chain, part: QVQLVQSGAEVKKPGASVKVSCKTSGYTFTDYYIHWVRQAPGQGLEWMGEIYPGSGNTYYAQKFQGRVTMTADTSTSTAYMELSSLRSEDTAVYYCARGNDYDAWFVYWGQGTLVTVSSGSTSGSGKPGSGEGSTKGDIVMTQSPDSLAVSLGERATINCKSSQSLLNSGTRKNYLAWYQQKPGQPPKLLIYWASIRESGVPDRFSGSGSGTDFTLTISSLQAEDVAVYYCKQSYSLYTFGQGTKLEIK = 89.9
hmAb1-1 CAR (protein, part only; not given: hinge, transmembrane and signaling domains, part only) chain, part: QVQLVQSGAEVKKPGASVKVSCKTSGYTFTDYYIHWVRQAPGQGLEWMGEIYPGSGNTYYAQKFQGRVTMTADTSTSTAYMELSSLRSEDTAVYYCARGNDYDAWFVYWGQGTLVTVSSGSTSGSGKPGSGEGSTKGDIVMTQSPDSLAVSLGERVTMNCKSSQSLLNSGTRKNYLAWYQQKPGQPPKLLIYWASIRESGVPDRFSGSGSGTDFTLTISSVQAEDVAVYYCKQSYSLYTFGQGTKLEIK = 91.1
hmAb1-5 CAR (protein, part only; not given: hinge, transmembrane and signaling domains, part only) chain, part: QVQLVQSGAEVKKPGASVKVSCKTSGYTFTDYYIHWVRQAPGQGLEWIGEIYPGSGNTYYAQKFQGRATLTADTSTSTAYMEFSSLRSEDTAVYYCARGNDYDAWFVYWGQGTLVTVSSGSTSGSGKPGSGEGSTKGDIVMTQSPDSLAVSLGERVTMNCKSSQSLLNSGTRKNYLAWYQQKPGQPPKLLIYWASIRESGVPDRFSGSGSGTDFTLTISSVQAEDVAVYYCKQSYSLYTFGQGTKLEIK = 90.5

Okay, next one:
Task: So what's the measured % dead target cells, flow cytometry, 48h, Hep3B for this one? hmAb1-2 CAR (protein, part only; not given: hinge, transmembrane and signaling domains, part only) chain, part: QVQLVQSGAEVKKPGASVKVSCKASGYTFTDYYIHWVRQAPGQGLEWMGEIYPGSGNTYYAQKFQGRVTMTRDTSTSTVYMELSSLRSEDTAVYYCARGNDYDAWFVYWGQGTLVTVSSGSTSGSGKPGSGEGSTKGDIVMTQSPDSLAVSLGERATINCKSSQSLLNSGTRKNYLAWYQQKPGQPPKLLIYWASIRESGVPDRFSGSGSGTDFTLTISSLQAEDVAVYYCKQSYSLYTFGQGTKLEIK
Result: 89.4
